- Tested on: LLC-PK1
- procedure_text: Cytotoxicity against pig LLC-PK1 cells assessed as cell viability after 48 hrs by neutral red uptake assay
- Assay type: cell-based, Sus scrofa
- assay_conditions: llc-pk1, 48 h
Peptide text beside a SMILES is read from it. * marks the point of attachment. Boc = CC(C)(C)OC(=O)*
value_type: Activity

Some entries whose results are on file:
COC(=O)[C@H](CCCNC(=N)N)NC(=O)[C@H](Cc1c[nH]cn1)NC(=O)[C@H](CCCNC(=N)N)NC(=O)OC(C)(C)C (Boc-Arg-His-Arg-OMe): > 10 µg/mL
N=C(N)NCCC[C@H](NC(=O)[C@H](Cc1c[nH]c(-c2ccc(-c3ccccc3)cc2)n1)NC(=O)[C@@H](N)CCCNC(=N)N)C(=O)NCc1ccccc1: > 10 µg/mL

Okay, next one:
Input: Retrieve Activity on LLC-PK1; query COC(=O)[C@H](CCCNC(=N)N)NC(=O)[C@H](Cc1c[nH]c(-c2ccc(C)cc2)n1)NC(=O)[C@@H](N)CCCNC(=N)N
Output: > 10 µg/mL

* * *

- Tested on: LLC-PK1
- procedure_text: Cytotoxicity against pig LLC-PK1 cells assessed as cell viability after 48 hrs by neutral red uptake assay
- Assay type: cell-based, Sus scrofa
- assay_conditions: llc-pk1, 48 h
The entries below are paired with their reported Activity.

Some entries whose results are on file:
COC(=O)[C@H](CCCNC(=N)N)NC(=O)[C@H](Cc1c[nH]c(-c2ccc(C)cc2)n1)NC(=O)[C@H](CCCNC(=N)N)NC(=O)OC(C)(C)C: > 10 µg/mL
COC(=O)[C@H](CCCNC(=N)N)NC(=O)[C@H](Cc1c[nH]c(-c2ccccc2)n1)NC(=O)[C@H](CCCNC(=N)N)NC(=O)OC(C)(C)C: > 10 µg/mL
COC(=O)[C@H](CCCNC(=N)N)NC(=O)[C@H](Cc1c[nH]c(-c2ccc(C(C)(C)C)cc2)n1)NC(=O)[C@H](CCCNC(=N)N)NC(=O)OC(C)(C)C: > 10 µg/mL
COc1ccc(-c2nc(C[C@H](NC(=O)[C@H](CCCNC(=N)N)NC(=O)OC(C)(C)C)C(=O)N[C@@H](CCCNC(=N)N)C(=O)NCc3ccccc3)c[nH]2)cc1: > 10 µg/mL
Cc1ccc(-c2nc(C[C@H](NC(=O)[C@@H](N)CCCNC(=N)N)C(=O)N[C@@H](CCCNC(=N)N)C(=O)NCc3ccccc3)c[nH]2)cc1: > 10 µg/mL

Okay, next one:
Input: State, in one line, measured Activity of COC(=O)[C@H](CCCNC(=N)N)NC(=O)[C@H](Cc1c[nH]c(-c2ccc(OC)cc2)n1)NC(=O)[C@@H](N)CCCNC(=N)N
Output: > 10 µg/mL

* * *

- System: BT-549
- procedure_text: Cytotoxicity against human BT549 cells assessed as cell viability after 48 hrs by neutral red uptake assay
- Assay type: cell-based
- assay_conditions: bt-549, 48 h
Peptide text beside a SMILES is read from it. * marks the point of attachment. Boc = CC(C)(C)OC(=O)*; NHBn = c1ccc(CN*)cc1
value_type: Activity

Input: State, in one line, measured Activity of CC(C)(C)c1ccc(-c2nc(C[C@H](NC(=O)[C@@H](N)CCCNC(=N)N)C(=O)N[C@@H](CCCNC(=N)N)C(=O)NCc3ccccc3)c[nH]2)cc1
Output: > 10 µg/mL

Input: State, in one line, measured Activity of COC(=O)[C@H](CCCNC(=N)N)NC(=O)[C@H](Cc1c[nH]c(-c2ccccc2)n1)NC(=O)[C@@H](N)CCCNC(=N)N
Output: > 10 µg/mL

Input: State, in one line, measured Activity of COc1ccc(-c2nc(C[C@H](NC(=O)[C@@H](N)CCCNC(=N)N)C(=O)N[C@@H](CCCNC(=N)N)C(=O)NCc3ccccc3)c[nH]2)cc1
Output: > 10 µg/mL

Input: State, in one line, measured Activity of N=C(N)NCCC[C@H](NC(=O)[C@H](Cc1c[nH]c(-c2ccc(-c3ccccc3)cc2)n1)NC(=O)[C@@H](N)CCCNC(=N)N)C(=O)NCc1ccccc1
Output: > 10 µg/mL

Input: State, in one line, measured Activity of COC(=O)[C@H](CCCNC(=N)N)NC(=O)[C@H](Cc1c[nH]c(-c2ccc(OC)cc2)n1)NC(=O)[C@@H](N)CCCNC(=N)N
Output: > 10 µg/mL

Input: State, in one line, measured Activity of N=C(N)NCCC[C@H](NC(=O)[C@H](Cc1c[nH]cn1)NC(=O)[C@@H](N)CCCNC(=N)N)C(=O)NCc1ccccc1 (H-Arg-His-Arg-NHBn)
Output: > 10 µg/mL

Input: State, in one line, measured Activity of CC(C)(C)OC(=O)N[C@@H](CCCNC(=N)N)C(=O)N[C@@H](Cc1c[nH]cn1)C(=O)N[C@@H](CCCNC(=N)N)C(=O)NCc1ccccc1 (Boc-Arg-His-Arg-NHBn)
Output: > 10 µg/mL

Input: State, in one line, measured Activity of COC(=O)[C@H](CCCNC(=N)N)NC(=O)[C@H](Cc1c[nH]cn1)NC(=O)[C@@H](N)CCCNC(=N)N (H-Arg-His-Arg-OMe)
Output: > 10 µg/mL

Input: State, in one line, measured Activity of COC(=O)[C@H](CCCNC(=N)N)NC(=O)[C@H](Cc1c[nH]cn1)NC(=O)[C@H](CCCNC(=N)N)NC(=O)OC(C)(C)C (Boc-Arg-His-Arg-OMe)
Output: > 10 µg/mL

Input: State, in one line, measured Activity of CC(C)(C)OC(=O)N[C@@H](CCCNC(=N)N)C(=O)N[C@@H](Cc1c[nH]c(-c2ccc(C(C)(C)C)cc2)n1)C(=O)N[C@@H](CCCNC(=N)N)C(=O)NCc1ccccc1
Output: > 10 µg/mL

Input: State, in one line, measured Activity of COC(=O)[C@H](CCCNC(=N)N)NC(=O)[C@H](Cc1c[nH]c(-c2ccc(OC)cc2)n1)NC(=O)[C@H](CCCNC(=N)N)NC(=O)OC(C)(C)C
Output: > 10 µg/mL

Input: State, in one line, measured Activity of N=C(N)NCCC[C@H](NC(=O)[C@H](Cc1c[nH]c(-c2ccccc2)n1)NC(=O)[C@@H](N)CCCNC(=N)N)C(=O)NCc1ccccc1
Output: > 10 µg/mL
